Test: protein stability index of a GFP-peptide fusion (yeast GPS) (PSI 1-4); higher = more stable; sorted into four equal gates, so the index is relative within each strain
Settings: ubr1∆
measure-name: protein stability index
Please reply with the value in numeric form only.

Prompt line: Which value of protein stability index has been reported for YTDELEEDVYLDPLARV [FAS2] in the records?
Response line: 3.44

Prompt line: Which value of protein stability index has been reported for KSNSTGNISSSTVKKKD [REC8] in the records?
Response line: 3.02

Prompt line: Which value of protein stability index has been reported for LALQRGATVFVNHLLLF [DPB4] in the records?
Response line: 1.34

Prompt line: Which value of protein stability index has been reported for SSHQRVFKLSTNLISKI [SWP82] in the records?
Response line: 1.93

Prompt line: Which value of protein stability index has been reported for GAGSIFTSHTRLRQGAA [RPL2A] in the records?
Response line: 3.25

Prompt line: Which value of protein stability index has been reported for RQDGSYTYHSTNKDNKA [ARP9] in the records?
Response line: 2.64

Prompt line: Which value of protein stability index has been reported for KNYLKNYILNFKQSNSE [CDC53] in the records?
Response line: 1.89

Prompt line: Which value of protein stability index has been reported for LSSLILKIFQEQSLEVF [SRB8] in the records?
Response line: 2.71

Prompt line: Which value of protein stability index has been reported for MARTKQTARKSTGGKAP [HHT1] in the records?
Response line: 3.39

Prompt line: Which value of protein stability index has been reported for DACPLDNQPWQLARCGR [HRT1] in the records?
Response line: 2.61

Prompt line: Which value of protein stability index has been reported for EKPAPVRTHMRNMIIVP [RPS15] in the records?
Response line: 1.14

Prompt line: Which value of protein stability index has been reported for LLISLNILFSLWKLLST [YLR018C/POM34] in the records?
Response line: 1.18

Prompt line: Which value of protein stability index has been reported for EEISRLQRDLIQTKEQV [YIL149C/MLP2] in the records?
Response line: 3.11

Prompt line: Which value of protein stability index has been reported for ETVPDNVKTSVSQLYRI [RPO31] in the records?
Response line: 3.2
